method: in vitro
recordedConditions: human, L02 cells
Description: Cytotoxicity against human L02 cells assessed as inhibition of cell proliferation incubated for 72 hrs by MTT assay
valueType: IC50 at 72 h

The recorded IC50 at 72 h for entry `O=C(CCCCc1nnc(-c2cc3c([nH]c4ccccc43)c(-c3ccc(C(F)(F)F)cc3)n2)o1)NO` equals > 10 µM

====

testTarget: Protein deacetylase HDAC6 (Homo sapiens, UniProt Q9UBN7)
Sequence (Q9UBN7 whole entry): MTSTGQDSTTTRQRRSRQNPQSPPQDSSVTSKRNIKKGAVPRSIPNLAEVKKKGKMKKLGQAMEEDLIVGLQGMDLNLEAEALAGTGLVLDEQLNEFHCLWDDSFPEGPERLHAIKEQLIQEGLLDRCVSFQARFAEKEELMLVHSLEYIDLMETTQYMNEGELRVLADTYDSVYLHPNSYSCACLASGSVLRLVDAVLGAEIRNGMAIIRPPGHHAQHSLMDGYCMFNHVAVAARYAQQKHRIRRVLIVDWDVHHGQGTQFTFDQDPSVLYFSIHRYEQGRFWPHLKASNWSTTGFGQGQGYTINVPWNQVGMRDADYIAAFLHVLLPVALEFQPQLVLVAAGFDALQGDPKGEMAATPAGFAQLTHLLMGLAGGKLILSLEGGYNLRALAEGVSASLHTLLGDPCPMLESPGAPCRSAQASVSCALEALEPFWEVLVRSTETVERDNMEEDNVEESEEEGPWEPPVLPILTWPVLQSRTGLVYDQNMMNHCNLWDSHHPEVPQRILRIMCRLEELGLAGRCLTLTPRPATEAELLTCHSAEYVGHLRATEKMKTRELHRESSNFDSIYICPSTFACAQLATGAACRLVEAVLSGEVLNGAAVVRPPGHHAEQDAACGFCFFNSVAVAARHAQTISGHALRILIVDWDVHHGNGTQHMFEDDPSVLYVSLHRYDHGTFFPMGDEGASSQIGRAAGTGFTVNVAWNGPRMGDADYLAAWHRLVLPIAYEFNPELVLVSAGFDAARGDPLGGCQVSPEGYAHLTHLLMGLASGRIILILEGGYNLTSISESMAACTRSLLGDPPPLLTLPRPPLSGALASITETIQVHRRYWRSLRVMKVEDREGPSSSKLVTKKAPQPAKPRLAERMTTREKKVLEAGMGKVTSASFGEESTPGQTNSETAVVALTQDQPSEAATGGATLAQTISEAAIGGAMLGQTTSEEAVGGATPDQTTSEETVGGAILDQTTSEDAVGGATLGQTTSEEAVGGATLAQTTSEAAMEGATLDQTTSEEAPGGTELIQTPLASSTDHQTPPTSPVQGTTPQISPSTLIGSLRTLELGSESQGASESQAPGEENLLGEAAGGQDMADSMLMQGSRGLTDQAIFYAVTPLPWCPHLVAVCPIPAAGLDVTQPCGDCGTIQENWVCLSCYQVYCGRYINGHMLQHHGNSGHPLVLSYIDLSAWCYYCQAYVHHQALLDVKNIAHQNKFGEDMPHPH
valueType: IC50 (nM)
Expressed in nM, but write only the number.

I looked up `O=C(CCCCc1nnc(-c2cc3c([nH]c4ccccc43)c(-c3ccc(C(F)(F)F)cc3)n2)o1)NO` and its IC50 for Protein deacetylase HDAC6 (Homo sapiens, UniProt Q9UBN7) was 6

====

Tested on: HCT-116
method: Antiproliferative activity against human HCT-116 cells assessed as inhibition of cell proliferation incubated for 72 hrs by MTT assay
Type: functional, cell-based
recordedConditions: HCT-116, 72 h
valueType: pIC50
API: returns pIC50 as number; meaning -log10 of concentration in mol/L.

Please review the entries below; each comes with its answer.
{"columns": ["entrySmiles", "pIC50"],
 "data": [
  ["COc1cc(-c2nc(-c3nnc(CCCC(=O)NO)o3)cc3c2[nH]c2ccccc23)cc(OC)c1OC", 5.73],
  ["O=C(CCc1nnc(-c2cc3c([nH]c4ccccc43)c(-c3ccc(C(F)(F)F)cc3)n2)o1)NO", 5.64]
]}

The recorded pIC50 for entry `COc1cc(-c2nc(-c3nnc(CCC(=O)NO)o3)cc3c2[nH]c2ccccc23)cc(OC)c1OC` equals 5.16

The recorded pIC50 for entry `O=C(CCCCc1nnc(-c2cc3c([nH]c4ccccc43)c(-c3ccc(C(F)(F)F)cc3)n2)o1)NO` equals 6.76

The recorded pIC50 for entry `O=C(CCCc1nnc(-c2cc3c([nH]c4ccccc43)c(-c3ccccc3)n2)o1)NO` equals 5.14

The recorded pIC50 for entry `O=C(NO)c1ccc(-c2nnc(-c3cc4c([nH]c5ccccc54)c(-c4ccc(C(F)(F)F)cc4)n3)o2)cc1` equals 5.03

The recorded pIC50 for entry `COc1cc(-c2nc(-c3nnc(CCCCC(=O)NO)o3)cc3c2[nH]c2ccccc23)cc(OC)c1OC` equals 6.72

The recorded pIC50 for entry `O=C(CCCCc1nnc(-c2cc3c([nH]c4ccccc43)c(-c3ccccc3)n2)o1)NO` equals 6.61

The recorded pIC50 for entry `O=C(CCCc1nnc(-c2cc3c([nH]c4ccccc43)c(-c3ccc(C(F)(F)F)cc3)n2)o1)NO` equals 5.87

====

testTarget: Histone deacetylase 1 (Homo sapiens, UniProt Q13547)
Sequence (Q13547 whole entry): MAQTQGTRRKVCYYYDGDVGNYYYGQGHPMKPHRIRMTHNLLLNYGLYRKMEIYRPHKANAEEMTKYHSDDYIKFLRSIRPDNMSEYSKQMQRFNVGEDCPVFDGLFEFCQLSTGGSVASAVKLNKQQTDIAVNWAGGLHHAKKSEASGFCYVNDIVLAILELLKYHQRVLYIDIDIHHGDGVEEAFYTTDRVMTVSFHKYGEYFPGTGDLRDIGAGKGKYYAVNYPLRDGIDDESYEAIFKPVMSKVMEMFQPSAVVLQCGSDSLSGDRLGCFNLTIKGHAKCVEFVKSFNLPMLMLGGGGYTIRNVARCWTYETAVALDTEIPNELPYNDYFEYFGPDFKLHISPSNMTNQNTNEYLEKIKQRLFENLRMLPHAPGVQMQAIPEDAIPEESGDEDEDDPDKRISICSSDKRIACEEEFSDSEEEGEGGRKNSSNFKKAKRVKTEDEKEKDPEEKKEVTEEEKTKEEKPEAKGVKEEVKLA
valueType: IC50 (nM)
Expressed in nM, but write only the number.

The recorded IC50 for entry `O=C(CCCCc1nnc(-c2cc3c([nH]c4ccccc43)c(-c3ccccc3)n2)o1)NO` equals 1.2

====

System: HCT-116
method: Antiproliferative activity against human HCT-116 cells assessed as inhibition of cell proliferation incubated for 72 hrs by MTT assay
Type: functional, cell-based
recordedConditions: HCT-116, 72 h
Quick reference for IC50 among some molecules

The recorded IC50 for entry `Nc1ccccc1NC(=O)c1ccc(-c2nnc(-c3cc4c([nH]c5ccccc54)c(-c4ccc(C(F)(F)F)cc4)n3)o2)cc1` equals > 10 µM

The recorded IC50 for entry `O=C(CCc1nnc(-c2cc3c([nH]c4ccccc43)c(-c3ccccc3)n2)o1)NO` equals > 10 µM

The recorded IC50 for entry `COc1cc(-c2nc(-c3nnc(-c4ccc(C(=O)NO)cc4)o3)cc3c2[nH]c2ccccc23)cc(OC)c1OC` equals > 10 µM
